Test target: Mitogen-activated protein kinase 8 (Homo sapiens, UniProt P45983)
Sequence (P45983 whole entry): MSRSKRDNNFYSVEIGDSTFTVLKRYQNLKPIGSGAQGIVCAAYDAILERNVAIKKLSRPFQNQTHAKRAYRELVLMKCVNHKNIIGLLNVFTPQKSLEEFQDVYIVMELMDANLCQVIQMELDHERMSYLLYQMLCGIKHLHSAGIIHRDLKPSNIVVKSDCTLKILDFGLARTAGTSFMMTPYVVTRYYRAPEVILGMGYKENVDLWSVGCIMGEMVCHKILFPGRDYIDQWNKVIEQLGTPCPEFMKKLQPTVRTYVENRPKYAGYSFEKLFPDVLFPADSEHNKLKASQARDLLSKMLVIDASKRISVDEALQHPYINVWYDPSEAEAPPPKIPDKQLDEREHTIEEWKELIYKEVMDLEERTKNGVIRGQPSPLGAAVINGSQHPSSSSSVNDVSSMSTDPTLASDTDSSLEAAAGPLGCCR
Assay method text: Inhibition of JNK1 by ATF2 phosphorylation assay
Please respond with criterion met when measured IC50 is strictly beneath 400 nM, and with criterion not met in all other cases.

Below are worked cases with known answers.
> print(dat)
                               smiles.entry              class
1  CC(C)NC(=O)c1nc(C(=O)NCc2ccc(S(C)(=O)=O)cc2)cc(N)c1C#N  criterion not met
2  CCOc1nc(C(=O)NCc2ccc(S(C)(=O)=O)cc2)cc(N)c1/C=C/c1ccccc1  criterion not met

Exercise: Does the reported IC50 of CC(C)COc1nc(C(=O)NCc2ccc(S(C)(=O)=O)cc2)cc(N)c1C#N stay below 400 nM?
Solution: criterion met

====

Kindly state pIC50 for each of the entries shown.
Test target: Mitogen-activated protein kinase 8 (Homo sapiens, UniProt P45983)
Assay method text: Inhibition of JNK1 by ATF2 phosphorylation assay
Answers are plain numbers, as −log10 of the molar value.

Example entries begin here.
> print(dat)
                               smiles.entry  numeric.readout
1  COc1ccc(Oc2nc(C(=O)NCc3ccc(S(C)(=O)=O)cc3)cc(N)c2C#N)cc1             6.38
2  CC(C)Nc1nc(C(=O)NCc2ccc(S(C)(=O)=O)cc2)cc(N)c1C#N             7.17
3  CS(=O)(=O)c1ccc(CNC(=O)c2cc(N)c(C#N)c(NCCNC(N)=O)n2)cc1             7.03
4  CN(C)CCNc1nc(C(=O)NCc2ccc(S(C)(=O)=O)cc2)cc(N)c1C#N             5.14
5  CS(=O)(=O)c1ccc(CNC(=O)c2cc(N)c(C#N)c(-c3ccncc3)n2)cc1             6.28

Quick batch: pIC50 for everything below.
1. CS(=O)(=O)c1ccc(CNC(=O)c2cc(N)c(C#N)c(NC3CC3)n2)cc1
2. CS(=O)(=O)c1ccc(CNC(=O)c2cc(N)c(C#N)c(-c3ccsc3CO)n2)cc1
3. CS(=O)(=O)c1ccc(CNC(=O)c2cc(N)c(C#N)c(CCC(=O)O)n2)cc1

Solution:
7.49
6.24
5.79

====

Test target: Mitogen-activated protein kinase 8 (Homo sapiens)
Assay method text: Inhibition of JNK1 by ATF2 phosphorylation assay
Kindly state pIC50 for each of the entries shown.
Give bare numbers, as −log10 of the molar value.

Example entries begin here.
> print(dat)
                               smiles.entry  numeric.readout
1  CS(=O)(=O)c1ccc(CNC(=O)c2cc(N)c(C#N)c(NCCO)n2)cc1             7.03
2  CS(=O)(=O)c1ccc(CNC(=O)c2cc(N)c(C#N)c(-c3cncnc3)n2)cc1             6.21
3  CS(=O)(=O)c1ccc(CNC(=O)c2cc(N)c(C#N)c(NC(CO)CO)n2)cc1             7.12
4  CCOc1nc(C(=O)NCc2ccc(S(C)(=O)=O)cc2)cc(N)c1C#C/C=C/CO             5.81

Quick batch: pIC50 for everything below.
1. CS(=O)(=O)c1ccc(CNC(=O)c2cc(N)c(C#N)c(/C=C/CCO)n2)cc1
2. CS(=O)(=O)c1ccc(CNC(=O)c2cc(N)c(C#N)c(-c3cccnc3)n2)cc1
3. C[C@@H](CO)Nc1nc(C(=O)NCc2ccc(S(C)(=O)=O)cc2)cc(N)c1C#N
4. CS(=O)(=O)c1ccc(CNC(=O)c2cc(N)c(C#N)c(NCCCO)n2)cc1
5. CS(=O)(=O)c1ccc(CNC(=O)c2cc(N)c(C#N)c(OCC3CC3)n2)cc1
6. CS(=O)(=O)c1ccc(CNC(=O)c2cc(N)c(C#N)c(-c3ccsc3CNCc3ccccc3)n2)cc1

Solution:
1. 6.77
2. 6.49
3. 7.66
4. 7.27
5. 7.64
6. 5.70

Quick batch: pIC50 for everything below.
1. CS(=O)(=O)c1ccc(CNC(=O)c2cc(N)c(C#N)c(NC3CCC3)n2)cc1
2. CC(C)[C@@H](CO)Nc1nc(C(=O)NCc2ccc(S(C)(=O)=O)cc2)cc(N)c1C#N
3. CS(=O)(=O)c1ccc(CNC(=O)c2cc(N)c(C#N)c(-c3ccoc3)n2)cc1
4. COCCNc1nc(C(=O)NCc2ccc(S(C)(=O)=O)cc2)cc(N)c1C#N
5. CS(=O)(=O)c1ccc(CNC(=O)c2cc(N)c(C#N)c(NCCc3ccccc3)n2)cc1

Solution:
7.07
5.82
6.57
6.92
6.59

Quick batch: pIC50 for everything below.
1. COc1cccc(-c2nc(C(=O)NCc3ccc(S(C)(=O)=O)cc3)cc(N)c2C#N)c1
2. CS(=O)(=O)c1ccc(CNC(=O)c2cc(N)c(C#N)c(NC3CCCC3)n2)cc1
3. CCOc1nc(C(=O)NCc2ccc(S(C)(=O)=O)cc2)cc(N)c1C(N)=O
4. C/C=C\c1nc(C(=O)NCc2ccc(S(C)(=O)=O)cc2)cc(N)c1C#N
5. CCOc1nc(C(=O)NCc2ccc(S(C)(=O)=O)cc2)cc(N)c1C#Cc1ccsc1

Solution:
1. 6.37
2. 7.02
3. 6.50
4. 6.82
5. 5.46

====

Test target: Mitogen-activated protein kinase 9 (Homo sapiens)
Sequence (P45984 whole entry): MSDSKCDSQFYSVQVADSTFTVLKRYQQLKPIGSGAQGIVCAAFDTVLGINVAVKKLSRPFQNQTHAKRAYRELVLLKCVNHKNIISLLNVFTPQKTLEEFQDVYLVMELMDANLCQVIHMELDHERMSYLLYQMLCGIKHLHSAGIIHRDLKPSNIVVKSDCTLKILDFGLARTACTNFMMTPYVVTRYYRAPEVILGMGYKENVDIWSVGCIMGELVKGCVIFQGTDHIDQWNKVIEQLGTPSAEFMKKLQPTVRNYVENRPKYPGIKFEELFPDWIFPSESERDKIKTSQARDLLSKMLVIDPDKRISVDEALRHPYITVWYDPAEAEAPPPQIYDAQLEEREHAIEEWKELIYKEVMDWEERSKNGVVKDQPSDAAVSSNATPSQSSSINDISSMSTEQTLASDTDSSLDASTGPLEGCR
Assay method text: Inhibition of JNK2 by ATF2 phosphorylation assay
Property: IC50 (µM)
One number for each entry, in µM.

Example entries begin here.
> print(dat)
                               smiles.entry  property  numeric.readout
1  CN(C)CCNc1nc(C(=O)NCc2ccc(S(C)(=O)=O)cc2)cc(N)c1C#N      IC50              9.2
2  C/C=C/c1nc(C(=O)NCc2ccc(S(C)(=O)=O)cc2)cc(N)c1C#N      IC50             0.23
3  C/C=C\c1nc(C(=O)NCc2ccc(S(C)(=O)=O)cc2)cc(N)c1C#N      IC50             0.26
4  CC(C)Oc1nc(C(=O)NCc2ccc(S(C)(=O)=O)cc2)cc(N)c1C#N      IC50            0.038
5  CC(C)NC(=O)c1nc(C(=O)NCc2ccc(S(C)(=O)=O)cc2)cc(N)c1C#N      IC50             0.12

Quick batch: IC50 for everything below.
1. CS(=O)(=O)c1ccc(CNC(=O)c2cc(N)c(C#N)c(-c3ccoc3)n2)cc1
2. C=Cc1c(N)cc(C(=O)NCc2ccc(S(C)(=O)=O)cc2)nc1OCC

Solution:
1: 0.53; 2: 1.46

Quick batch: IC50 for everything below.
1. CCOc1nc(C(=O)NCc2ccc(S(C)(=O)=O)cc2)cc(N)c1/C=C/c1ccccc1
2. CC(=O)NCCNc1nc(C(=O)NCc2ccc(S(C)(=O)=O)cc2)cc(N)c1C#N

Solution:
[4.13, 0.081]

====

Kindly state IC50 for each of the entries shown.
Test target: c-Jun N-terminal kinase, JNK (Homo sapiens, UniProt P45983+P53779+P45984)
Assay method text: Inhibition of PcJun phosphorylation in HepG2 cells
Type: functional, cell-based

Example entries begin here.
> print(dat)
                               smiles.entry                               test.target    result
1  CCOc1nc(C(=O)NCc2ccc(S(C)(=O)=O)cc2)cc(N)c1/C=C/C#N  c-Jun N-terminal kinase, JNK (Homo sapiens, UniProt P45983+P53779+P45984)  0.807 µM
2  CS(=O)(=O)c1ccc(CNC(=O)c2cc(N)c(C#N)c(NCCC(N)=O)n2)cc1  c-Jun N-terminal kinase, JNK (Homo sapiens, UniProt P45983+P53779+P45984)   > 10 µM
3  CS(=O)(=O)c1ccc(CNC(=O)c2cc(N)c(C#N)c(-c3cccc(O)c3)n2)cc1  c-Jun N-terminal kinase, JNK (Homo sapiens, UniProt P45983+P53779+P45984)    9.4 µM
4  CC(C)COc1nc(C(=O)NCc2ccc(S(C)(=O)=O)cc2)cc(N)c1C#N  c-Jun N-terminal kinase, JNK (Homo sapiens, UniProt P45983+P53779+P45984)    0.7 µM
5  CS(=O)(=O)c1ccc(CNC(=O)c2cc(N)c(C#N)c(-c3ccc(C(=O)O)s3)n2)cc1  c-Jun N-terminal kinase, JNK (Homo sapiens, UniProt P45983+P53779+P45984)   > 10 µM
6  CCOc1nc(C(=O)NCc2ccc(S(C)(=O)=O)cc2)cc(N)c1C#CCCO  c-Jun N-terminal kinase, JNK (Homo sapiens, UniProt P45983+P53779+P45984)   7.36 µM

Quick batch: IC50 for everything below.
1. CS(=O)(=O)c1ccc(CNC(=O)c2cc(N)c(C#N)c(-c3ccsc3CNCc3ccccc3)n2)cc1
2. COCCNc1nc(C(=O)NCc2ccc(S(C)(=O)=O)cc2)cc(N)c1C#N
3. CCOc1nc(C(=O)NCc2ccc(S(C)(=O)=O)cc2)cc(N)c1C(N)=O

Solution:
1: 8.01 µM; 2: 5.9 µM; 3: 7.54 µM
